Assay: Cytotoxicity against mouse Peritoneal macrophages assessed as reduction in cell viability incubated for 24 hrs by MTT assay
Format: toxicity, cell-based, Peritoneal macrophage
READOUT NAME: CC50 at 24 h (µM)
Numbers only; they are read as µM.

Just so you know, measured CC50 at 24 h for NC(=O)N/N=C/c1ccc(Oc2no[n+]([O-])c2-c2ccccc2)cc1 came out at 500

====

Assay: Cytotoxicity against African green monkey Vero cells assessed as reduction in cell viability measured after 96 hrs by MTS assay
Type: toxicity, cell-based, Chlorocebus sabaeus
READOUT NAME: IC50 at 96 h (nM)
Reply numerically in nM, unit not repeated.

Lookup result for O=C(Cn1cnc2cc(Cl)ccc2c1=O)n1cnc2cc(Cl)ccc2c1=O ; measured IC50 at 96 h: 30

====

IC50 values for the compounds below.
Test: Cytotoxicity against African green monkey Vero cells assessed as reduction in cell growth
Assay type: toxicity, cell-based, Chlorocebus sabaeus
// note: answer is a bare numeric in µM

[[record]]
structure_smiles = "Cc1cc(OCCCCNC(C)(C)C)cc2oc3cc(OCCCCNC(C)(C)C)cc(O)c3c(=O)c12"
recorded_measurement = 15.5


Attention now turns to another entry.
Note to self: IC50 recorded for Cc1cc(OCCCCCNC(C)(C)C)cc2oc3cc(OCCCCCNC(C)(C)C)cc(O)c3c(=O)c12 was 15.5

====

Assay: Cytotoxicity against African green monkey Vero cells assessed as reduction in cell viability incubated for 72 hrs by MTT assay
Assay type: toxicity, cell-based, Chlorocebus sabaeus
READOUT NAME: IC50 at 72 h (µM)
A number alone suffices; assume µM.

In plain terms, O=[N+]([O-])c1ccc(/C=N\NS(=O)(=O)c2ccc(-c3ccccc3)cc2)o1 has a documented IC50 at 72 h of 16.4

====

Experiment: Cytotoxicity against mouse J774.A1 cells assessed as reduction in cell viability by MTT assay
Format: toxicity, cell-based
READOUT NAME: pIC50
Entry type: numeric. Quantity: pIC50, the -log10 of concentration in molar units.

Lab book: pIC50 of NC(=S)N/N=C(/C=C/c1cccnc1)c1cccc(NC(=O)Nc2ccc(Cl)cc2)c1 noted as 5.42

====

Assay: Cytotoxicity against mouse J774.A1 cells assessed as inhibition of cell growth measured for 72 hrs by MTT assay
Type: toxicity, cell-based
READOUT NAME: CC50 at 72 h (µM)
Field format: number, assumed µM, no unit text.

Field CC50 at 72 h (entry CCc1ccc(NC(=S)N/N=C/c2c[nH]c3c(C)cc(Br)cc23)cc1 ) reads 53.2

====

System: HepG2
Test: Cytotoxicity against human HepG2 cells assessed as growth inhibition of cells measured for 48 hrs by MTT assay
Format: functional, cell-based
Conditions: HepG2, 48 h
READOUT NAME: IC50

IC50 for O=C(CCCc1cc2ccccc2[nH]1)Nc1nc2ccccc2c2ccccc12 is 0.01 µM

====

Test system: Leishmania major
Assay: Antileishmanial activity against Leishmania major MHOM/IN/95/9515 amastigotes assessed as reduction in cell growth
Assay type: functional, organism-based
READOUT NAME: IC50 (nM)
Use nM as the unit, but write only the number.

Notebook: Cc1ccc2c(NCCCN(C)C(=O)c3cccc(/C=C/C(=O)c4ccc(C)o4)c3)ccnc2c1 , IC50 read as 1140

====

System: Leishmania infantum
Experiment: Antileishmanial activity against Leishmania infantum promastigote after 72 hrs by MTT assay
Type: functional, organism-based
READOUT NAME: IC50 (µM)
Use µM as the unit, but write only the number.

The molecule identified as O=C(/C=C/c1ccc(F)cc1)c1ccccc1Cl registered its IC50 at 74.1
